Assay: Multi-point microsome stability assay, rat
Format: in vitro ADME
Conditions: male, Sprague Dawley, rat microsomal fractions, pH 7.4
Quick list: half-life at 1 μM per entry.
MEASURED_ATTRIBUTE: half-life at 1 μM (min)

MOLECULE	MEASURED_ATTRIBUTE	UNIT_ABBREVIATION	MEASUREMENT
C=C[C@H]1C2CCCC1(c1cccc(O)c1)CCN2CCc1ccccc1[N+](=O)[O-] (stereo in doubt) [compound 24]	half-life at 1 μM	min	0.41
C=C[C@H]1[C@H]2CCC[C@]1(c1cccc(O)c1)CCN2CCc1ccc(O)cc1 [compound 20]	half-life at 1 μM	min	27.8
C=C[C@H]1[C@H]2CCC[C@]1(c1cccc(O)c1)CCN2CCc1ccccc1 [DC-1–76.2, reference compound]	half-life at 1 μM	min	6.9
C=C[C@H]1[C@H]2CCC[C@]1(c1cccc(O)c1)CCN2CCc1cccs1 [compound 16]	half-life at 1 μM	min	1.04
C=C[C@H]1[C@H]2CCC[C@]1(c1cccc(O)c1)CCN2CCc1ccc(F)cc1 [compound 19]	half-life at 1 μM	min	7.6
C=C[C@H]1[C@H]2CCC[C@]1(c1cccc(O)c1)CCN2CCc1ccc([N+](=O)[O-])cc1 [compound 17]	half-life at 1 μM	min	12.9
C=C[C@H]1[C@H]2CCC[C@]1(c1cccc(O)c1)CCN2CCc1cccc([N+](=O)[O-])c1 [compound 18]	half-life at 1 μM	min	1.98
C=C[C@H]1C2CCCC1(c1cccc(O)c1)CCN2CCc1cccc(O)c1 (stereo in doubt) [compound 25]	half-life at 1 μM	min	9.65
C=C[C@H]1[C@H]2CCC[C@]1(c1cccc(NC(C)=O)c1)CCN2CCc1ccccc1 [compound 3]	half-life at 1 μM	min	3
C=C[C@H]1[C@H]2CCC[C@]1(c1cccc(O)c1)CCN2CC1CC1 [compound 15]	half-life at 1 μM	min	9.7
C=C[C@H]1[C@H]2CCC[C@]1(c1cccc(C(N)=O)c1)CCN2CCc1ccccc1 [compound 5]	half-life at 1 μM	min	3.2
C=C[C@H]1[C@H]2CCC[C@]1(c1cccc(O)c1)CCN2C [compound 11]	half-life at 1 μM	min	62.6
C=C[C@@H]1[C@H]2CCC[C@]1(c1cccc(O)c1)CCN2C [compound 10]	half-life at 1 μM	min	50.8

----------
Assay: Multi-point cytosol stability assay, mouse
Assay type: in vitro ADME
Conditions: mouse cytosol fractions, pH 7.4
Quick list: half-life at 1 μM per entry.

COMPOUND	UNIT_ABBREVIATION	OPERATOR	half-life at 1 μM
C=C[C@H]1[C@H]2CCC[C@]1(c1cccc(O)c1)CCN2CCc1cccc([N+](=O)[O-])c1 [compound 18]	h	>	2
C=C[C@H]1[C@H]2CCC[C@]1(c1cccc(O)c1)CCN2CCc1cccs1 [compound 16]	h	>	2
C=C[C@H]1C2CCCC1(c1cccc(O)c1)CCN2CCc1cccc(O)c1 (stereo in doubt) [compound 25]	h	>	2
C=C[C@H]1[C@H]2CCC[C@]1(c1cccc(O)c1)CCN2CCc1ccc([N+](=O)[O-])cc1 [compound 17]	h	=	1.75
C=C[C@H]1[C@H]2CCC[C@]1(c1cccc(O)c1)CCN2CCc1ccccc1 [DC-1–76.2, reference compound]	h	=	1.2
C=C[C@H]1[C@H]2CCC[C@]1(c1cccc(O)c1)CCN2C [compound 11]	h	=	1.87
C=C[C@H]1[C@H]2CCC[C@]1(c1cccc(O)c1)CCN2CCc1ccc(F)cc1 [compound 19]	h	=	1.8
C=C[C@H]1[C@H]2CCC[C@]1(c1cccc(O)c1)CCN2CC1CC1 [compound 15]	h	>	2
